Test system: MDR1-MDCK cell monolayers
SETTINGS: dog, MDCK-MDR1, 120 min, 5 μM, pH 7.4
compounds and their reported MDCK-MDR1: % Recov B-A
Note: unit % is implicit; provide only the numeric part.

According to the records, this compound CN(C)C(=O)c1cc2cc(O)c(-c3ccc(N(C)[C@@H]4C[C@H]5CC[C@@H]([C@@H]4F)N5C)nn3)cc2o1 (single isomer, unassigned) [Compound 106A] displays MDCK-MDR1: % Recov B-A of 92

According to the records, this compound Cc1nc2cc(-c3ccc(N(C)[C@@H]4C[C@H]5CC[C@@H]([C@@H]4F)N5C)nn3)c(O)cc2c(=O)n1CC(F)(F)F (single isomer, unassigned) [Compound 130A] displays MDCK-MDR1: % Recov B-A of 116

According to the records, this compound CN(c1ccc(-c2cc(C#N)c(F)cc2O)nn1)[C@@H]1C[C@H]2CC[C@H](N2)[C@@H]1F [Compound 72A] displays MDCK-MDR1: % Recov B-A of 77

More entries:
According to the records, this compound CN(c1ccc(-c2cc3ccn(C)c(=O)c3s2)nn1)[C@H]1C[C@@H]2CC[C@@H](N2)[C@H]1F (single isomer, unassigned) [Compound 67B] displays MDCK-MDR1: % Recov B-A of 96

According to the records, this compound CN(c1ccc(-c2ccc(C(F)F)cc2O)nn1)[C@@H]1C[C@H]2CC[C@H](N2)[C@@H]1F (single isomer, unassigned) [Compound 120A] displays MDCK-MDR1: % Recov B-A of 74

According to the records, this compound CCc1cn(-c2ccc(-c3ccc(N(C)[C@H]4C[C@@H]5CC(F)(F)[C@H](C4)N5)nn3)c(O)c2)nn1 (single isomer, unassigned) [Compound 64B] displays MDCK-MDR1: % Recov B-A of 83

According to the records, this compound CN(c1ccc(-c2cc3cc[nH]c(=O)c3s2)nn1)[C@H]1C[C@@H]2CC[C@@H](N2)[C@H]1F (single isomer, unassigned) [Compound 66B] displays MDCK-MDR1: % Recov B-A of 98

According to the records, this compound Cc1cc(=O)c2cc(O)c(-c3ccc(N(C)[C@@H]4C[C@H]5CC[C@@H]([C@@H]4F)N5C)nn3)cc2o1 [Compound 99A] displays MDCK-MDR1: % Recov B-A of 91

====

Tested on: MDR1-MDCK cell monolayers
ASSAY_COMMENT: Blood-brain-barrier (BBB) penetration potential via MDCK-MDR1 permeability assay
SETTINGS: B-A direction
Quick rule for you: MDCK-MDR1: % Recov B-A under 90% gets met, anything else gets not met.

Past entries and their recorded results:
Prompt: In plain terms, does Cc1cnc(-c2ccc(-c3ccc(N(C)C4CC5CCC(N5)C4F)nn3)c(O)c2)o1 (single isomer, unassigned) [Compound 48B] come in under 90% for MDCK-MDR1: % Recov B-A?
Response: met

Prompt: In plain terms, does CN(c1ccc(-c2ccc(-n3ccnn3)cc2O)nn1)[C@@H]1C[C@H]2CCC[C@H](N2)[C@@H]1F [Compound 62A] come in under 90% for MDCK-MDR1: % Recov B-A?
Response: not met

Shift focus to the following entry.
Prompt: In plain terms, does CN(c1ccc(-c2cc3cccnc3cc2O)nn1)[C@@H]1C[C@H]2CC[C@H](N2)[C@@H]1F [Compound 74A] come in under 90% for MDCK-MDR1: % Recov B-A?
Response: met

====

Tested on: MDR1-MDCK cell monolayers
ASSAY_COMMENT: Blood-brain-barrier (BBB) penetration potential via MDCK-MDR1 permeability assay
SETTINGS: A-B
RECORDED_METRIC: MDCK-MDR1: % Recov A-B (%)
Note: unit % is implicit; provide only the numeric part.

Example results:
Form field MDCK-MDR1: % Recov A-B for item CN(c1ccc(-c2cc3cnccc3cc2O)nn1)[C@@H]1C[C@H]2CCC[C@H](N2)[C@@H]1F [Compound 121A] on MDR1-MDCK cell monolayers: 81

Form field MDCK-MDR1: % Recov A-B for item Cc1cc(=O)c2cc(-c3ccc(N(C)[C@@H]4C[C@H]5CC[C@@H]([C@@H]4F)N5C)nn3)c(O)cc2o1 [Compound 100A] on MDR1-MDCK cell monolayers: 80

Form field MDCK-MDR1: % Recov A-B for item CN(c1ccc(-c2cc(F)c(-n3ccnn3)cc2O)nn1)[C@H]1C[C@@H]2CC[C@H]([C@H]1F)N2C [Compound 103B] on MDR1-MDCK cell monolayers: 95

Form field MDCK-MDR1: % Recov A-B for item CN(c1ccc(-c2cc3oc(C(=O)N4CCC4)cc3cc2O)nn1)[C@H]1C[C@@H]2CC[C@@H](N2)[C@H]1F [Compound 112B] on MDR1-MDCK cell monolayers: 98

Form field MDCK-MDR1: % Recov A-B for item CN(c1ccc(-c2cc3ncn(C)c(=O)c3cc2O)nn1)[C@H]1C[C@@H]2CC[C@H]([C@H]1F)N2C [Compound 101B] on MDR1-MDCK cell monolayers: 118

More entries:
Form field MDCK-MDR1: % Recov A-B for item Cc1nc2cc(O)c(-c3ccc(N(C)[C@@H]4C[C@H]5CC[C@H](N5)[C@@H]4F)nn3)cc2o1 [Compound 117A] on MDR1-MDCK cell monolayers: 84

Form field MDCK-MDR1: % Recov A-B for item Cc1nc2cc(-c3ccc(N(C)[C@H]4C[C@@H]5CC[C@@H](N5)[C@H]4F)nn3)c(O)cc2s1 [Compound 115B] on MDR1-MDCK cell monolayers: 71

Form field MDCK-MDR1: % Recov A-B for item Cc1nc2cc(-c3ccc(N(C)[C@@H]4C[C@H]5CC[C@H](N5)[C@@H]4F)nn3)c(O)cc2s1 [Compound 115A] on MDR1-MDCK cell monolayers: 93

Form field MDCK-MDR1: % Recov A-B for item Cc1nc2cc(-c3ccc(N(C)[C@H]4C[C@@H]5CC[C@@H](N5)[C@H]4F)nn3)c(O)cc2c(=O)n1C [Compound 114B] on MDR1-MDCK cell monolayers: 88

====

Tested on: MDR1
ASSAY_COMMENT: Blood-brain-barrier (BBB) penetration potential via MDCK-MDR1 permeability assay
SETTINGS: dog, MDCK-MDR1, pH 7.4, MDCK-MDR1: Efflux, efflux ratio
compounds and their reported efflux ratio at 120 min, 5 μM
// response body must contain only the number

Example results:
According to the records, this compound CN(c1ccc(-c2ccc(-n3nccn3)cc2O)nn1)[C@@H]1C[C@H]2CC[C@H](N2)[C@@H]1F [Compound 90A] displays efflux ratio at 120 min, 5 μM of 3

According to the records, this compound CN(c1ccc(-c2ccc(-n3ccnn3)cc2O)nn1)[C@H]1C[C@@H]2CC[C@@H](N2)[C@H]1F [Compound 61B] displays efflux ratio at 120 min, 5 μM of 12

More entries:
According to the records, this compound Cc1cc(=O)c2cc(-c3ccc(N(C)[C@@H]4C[C@H]5CC[C@H](N5)[C@@H]4F)nn3)c(O)cc2o1 [Compound 50A] displays efflux ratio at 120 min, 5 μM of 32

According to the records, this compound CN(c1ccc(-c2cc3occc(=O)c3cc2O)nn1)[C@H]1C[C@@H]2CC[C@@H](N2)[C@H]1F [Compound 43B] displays efflux ratio at 120 min, 5 μM of 12

According to the records, this compound CN(c1ccc(-c2cc(F)c(-n3ccnn3)cc2O)nn1)[C@H]1C[C@@H]2CC[C@@H](N2)[C@H]1F [Compound 52B] displays efflux ratio at 120 min, 5 μM of 7

According to the records, this compound CCN(c1ccc(-c2ccc(-c3cn[nH]c3)cc2O)nn1)[C@H]1C[C@@H]2CC[C@@H](N2)[C@H]1F [Compound 12B] displays efflux ratio at 120 min, 5 μM of 43

According to the records, this compound COc1cnc(-c2ccc(-c3ccc(N(C)[C@H]4C[C@@H]5CCC[C@@H](N5)[C@H]4F)nn3)c(O)c2)cn1 [Compound 29B] displays efflux ratio at 120 min, 5 μM of 4

According to the records, this compound Cc1ccc(-c2ccc(-c3ccc(N(C)[C@H]4C[C@@H]5CC[C@@H](N5)[C@H]4F)nn3)c(O)c2)nn1 (single isomer, unassigned) [Compound 25B] displays efflux ratio at 120 min, 5 μM of 29

According to the records, this compound CCN(c1ccc(-c2ccc(-c3cn[nH]c3)cc2O)nn1)[C@@H]1C[C@H]2CC[C@H](N2)[C@@H]1F [Compound 12A] displays efflux ratio at 120 min, 5 μM of 27

According to the records, this compound CN(c1ccc(-c2cc3cccnc3cc2O)nn1)[C@H]1C[C@@H]2CC[C@@H](N2)[C@H]1F [Compound 74B] displays efflux ratio at 120 min, 5 μM of 19

According to the records, this compound CN(c1ccc(-c2cc3ncn(CC(F)(F)F)c(=O)c3cc2O)nn1)[C@@H]1C[C@H]2CC[C@H](N2)[C@@H]1F [Compound 81A] displays efflux ratio at 120 min, 5 μM of 139
